Entry source: PubChem BioAssay (EPA / NIEHS)

# Read-out: Intercellular Adhesion Molecule 1 (ICAM1), ICAM1 (gene 3383)
# experiment-description: BSK_KF3CT_ICAM1: BioMAP Diversity Plus: KF3CT Assay for Intercellular Adhesion Molecule 1 (ICAM1) Biomarker Activity (AID 2283067)
# assay-context: primary human keratinocytes with fibroblasts; actives raise or lower the signal
Activity calls are given as the source filed them. How the source made its calls: active means hit-call score of the fitted dose curve at least 0.9, where 1 is the maximum; inactive means score below 0.9.
Respond only with the outcome that fits, drawn from active, inactive

-- ask Assay result, entry COc1cccc([C@H](O)C2CCN(CCc3ccc(F)cc3)CC2)c1OC — outcome?
-- reply inactive

-- ask Assay result, entry CCCCCc1ccc(N)cc1 — outcome?
-- reply inactive

-- ask Assay result, entry CCN(Cc1cccc(S(=O)(=O)O)c1)c1ccc(C(=C2C=CC(=[N+](CC)Cc3cccc(S(=O)(=O)O)c3)C=C2)c2ccccc2S(=O)(=O)[O-])cc1 — outcome?
-- reply inactive

-- ask Assay result, entry Cc1cccc2ccccc12 — outcome?
-- reply inactive

-- ask Assay result, entry CCCOC(=O)c1cc(O)c(O)c(O)c1 — outcome?
-- reply inactive

-- ask Assay result, entry O=C1O[C@H]([C@@H](O)CO)C(O)=C1O — outcome?
-- reply inactive

-- ask Assay result, entry OCCO — outcome?
-- reply inactive

-- ask Assay result, entry OC12N=C(c3ccccc3)SC1Cc1cc(Cl)ccc12 (stereo not given) — outcome?
-- reply inactive

-- ask Assay result, entry CCCCCCCCOC(=O)c1cc(O)c(O)c(O)c1 — outcome?
-- reply active

-- ask Assay result, entry CN(C)C(=O)C1(N2CCCCC2)CCN(CC[C@@]2(c3ccc(Cl)c(Cl)c3)CN(C(=O)c3ccccc3)CCO2)CC1 — outcome?
-- reply active

-- ask Assay result, entry COCC(C)OCC(C)OCC(C)O (stereo not given) — outcome?
-- reply inactive

-- ask Assay result, entry CCCCCCCCCCCO — outcome?
-- reply inactive

-- ask Assay result, entry CCCCCCCCCCCC[N+](C)(C)C — outcome?
-- reply inactive

-- ask Assay result, entry O=CCCCC=O — outcome?
-- reply active

-- ask Assay result, entry Clc1ccccc1C(c1ccccc1)(c1ccccc1)n1ccnc1 — outcome?
-- reply active

-- ask Assay result, entry O=c1[nH]sc2ccccc12 — outcome?
-- reply active

-- ask Assay result, entry CCCCCCCC[Si](OCC)(OCC)OCC — outcome?
-- reply inactive

-- ask Assay result, entry CN1C(=O)CC[C@H]1c1cccnc1 — outcome?
-- reply inactive

-- ask Assay result, entry CC/C(=C(/CC)c1ccc(O)cc1)c1ccc(O)cc1 — outcome?
-- reply active

-- ask Assay result, entry O=C(OCCCCCCOC(=O)c1ccccc1)c1ccccc1 — outcome?
-- reply inactive

* * *

# Read-out: Alkaline Phosphatase, Placental (ALPP) gene, ALPP (gene 250)
# experiment-description: LTEA_HepaRG_ALPP: Life Technologies and Expression Analysis (LTEA) Assay for Alkaline Phosphatase, Placental (ALPP) gene using HepaRG (AID 2283468)
# assay-context: mRNA level, 48 h; actives raise or lower the signal
Activity calls are given as the source filed them. Rule for the calls: active = hit-call score of the fitted dose curve at least 0.9, where 1 is the maximum; inactive = score below 0.9.
Respond only with the outcome that fits, drawn from active, inactive

-- ask Assay result, entry CCCCCCCCN(C)CCCCCCCC — outcome?
-- reply inactive

-- ask Assay result, entry C[C@]12CC[C@@H]3c4ccc(O)cc4CC[C@H]3[C@@H]1CCC2=O — outcome?
-- reply inactive

-- ask Assay result, entry Cc1cc2c(cc1C(F)(F)F)N(C(=O)Nc1ccc(Oc3cccnc3C)nc1)CC2 — outcome?
-- reply active

-- ask Assay result, entry c1ccc2ccccc2c1 — outcome?
-- reply inactive

-- ask Assay result, entry CCO[Si](CCCNC(N)=O)(OCC)OCC — outcome?
-- reply inactive

-- ask Assay result, entry Cc1cccc2ccccc12 — outcome?
-- reply inactive

-- ask Assay result, entry CCCCCc1ccc(N)cc1 — outcome?
-- reply inactive

-- ask Assay result, entry O=C(O)c1ccccc1-n1cc(C(=O)O)c(=O)c2cc(Nc3c(F)cc(F)cc3Cl)c(Cl)cc21 — outcome?
-- reply active

-- ask Assay result, entry CC[C@@H]1C[C@H](N(Cc2cc(C(F)(F)F)cc(C(F)(F)F)c2)C(C)=O)c2cc(C(F)(F)F)ccc2N1C(=O)OC(C)C — outcome?
-- reply inactive

-- ask Assay result, entry CCCOC(=O)c1cc(O)c(O)c(O)c1 — outcome?
-- reply inactive

-- ask Assay result, entry c1ccc2n[nH]nc2c1 — outcome?
-- reply inactive

-- ask Assay result, entry CCCCCCCCCCCC[N+](C)(C)C — outcome?
-- reply active

* * *

# Read-out: HGF (gene 3082)
# experiment-description: LTEA_HepaRG_HGF: Life Technologies and Expression Analysis (LTEA) Assay for Hepatocyte Growth Facto (HGF) using HepaRG (AID 2283505)
# assay-context: mRNA level, 48 h; actives raise or lower the signal
Calls of active or inactive are those of the source. Rule for the calls: active = hit-call score of the fitted dose curve at least 0.9, where 1 is the maximum; inactive = score below 0.9.
Respond only with the outcome that fits, drawn from active, inactive

-- ask Assay result, entry O=C(Nc1ccc(Cl)cc1)Nc1ccc(Cl)c(Cl)c1 — outcome?
-- reply active

-- ask Assay result, entry CCN(Cc1cccc(S(=O)(=O)O)c1)c1ccc(C(=C2C=CC(=[N+](CC)Cc3cccc(S(=O)(=O)O)c3)C=C2)c2ccccc2S(=O)(=O)[O-])cc1 — outcome?
-- reply inactive

-- ask Assay result, entry O=C(OCCCCCCOC(=O)c1ccccc1)c1ccccc1 — outcome?
-- reply inactive

-- ask Assay result, entry CO[C@H]1/C=C/O[C@@]2(C)Oc3c(C)c(O)c4c(O)c(c(/C=N/N5CCN(C)CC5)c(O)c4c3C2=O)NC(=O)/C(C)=C\C=C\[C@H](C)[C@H](O)[C@@H](C)[C@@H](O)[C@@H](C)[C@H](OC(C)=O)[C@@H]1C — outcome?
-- reply inactive

-- ask Assay result, entry CC/C(=C(/CC)c1ccc(O)cc1)c1ccc(O)cc1 — outcome?
-- reply active

-- ask Assay result, entry CCCCCCCCCC(=O)O — outcome?
-- reply inactive

-- ask Assay result, entry CC(C)(O)c1ccc(CNC(=O)c2cccnc2Oc2ccc3nonc3c2)cc1 — outcome?
-- reply inactive

-- ask Assay result, entry O=C(O)c1ccccc1C(=O)OCc1ccccc1 — outcome?
-- reply inactive

-- ask Assay result, entry O=C1c2ccccc2C(=O)N1CCc1noc(-c2ccc(CN3CCCCCC3)s2)n1 — outcome?
-- reply inactive

* * *

# Read-out: growth arrest and DNA damage 45 (GADD45G), GADD45G (gene 10912)
# experiment-description: LTEA_HepaRG_GADD45G: Life Technologies and Expression Analysis (LTEA) Assay for growth arrest and DNA damage 45 (GADD45G) using HepaRG (AID 2283499)
# assay-context: mRNA level, 48 h; actives raise or lower the signal
Activity calls are given as the source filed them. Rule for the calls: active = hit-call score of the fitted dose curve at least 0.9, where 1 is the maximum; inactive = score below 0.9.
Respond only with the outcome that fits, drawn from yes (1) for active, no (0) for inactive

-- ask Assay result, entry O=C(OCCCCCCOC(=O)c1ccccc1)c1ccccc1 — outcome?
-- reply no (0)

-- ask Assay result, entry O=c1ccc2ccccc2o1 — outcome?
-- reply no (0)

-- ask Assay result, entry O=C1O[C@H]([C@@H](O)CO)C(O)=C1O — outcome?
-- reply no (0)

-- ask Assay result, entry CCCCOC(=O)CC(CC(=O)OCCCC)(OC(C)=O)C(=O)OCCCC — outcome?
-- reply no (0)

-- ask Assay result, entry NC(=O)c1nc(-c2cccc(-c3cc(F)ccc3OCC(F)(F)C(F)(F)F)c2)n[nH]1 — outcome?
-- reply no (0)

-- ask Assay result, entry c1ccc2ccccc2c1 — outcome?
-- reply no (0)

-- ask Assay result, entry O=c1c(-c2ccc(O)cc2)coc2cc(O)cc(O)c12 — outcome?
-- reply no (0)

-- ask Assay result, entry O=C(O)Cc1cc(I)c(Oc2ccc(O)c(I)c2)c(I)c1 — outcome?
-- reply yes (1)

-- ask Assay result, entry CC[C@H](NC(=O)c1cc(F)ccc1NS(=O)(=O)c1cccc2cccnc12)c1ccccc1 — outcome?
-- reply no (0)

-- ask Assay result, entry O=CCCCC=O — outcome?
-- reply no (0)

-- ask Assay result, entry CC1(C)NC(=O)N(c2ccc([N+](=O)[O-])c(C(F)(F)F)c2)C1=O — outcome?
-- reply yes (1)

-- ask Assay result, entry Oc1ccccc1 — outcome?
-- reply no (0)

-- ask Assay result, entry CC1=CC(=O)/C(=C(/C)O)C(=O)O1 — outcome?
-- reply no (0)

-- ask Assay result, entry C[C@]12CC[C@@H]3c4ccc(O)cc4CC[C@H]3[C@@H]1CCC2=O — outcome?
-- reply no (0)

-- ask Assay result, entry CCN(Cc1cccnc1)C(=O)c1cccc(Cl)c1[C@]1(C)C(=O)N(Cc2ccc(OC)cc2OC)c2ccc(Cl)cc21 — outcome?
-- reply no (0)

-- ask Assay result, entry CCCCCCCCOC(=O)c1cc(O)c(O)c(O)c1 — outcome?
-- reply no (0)

-- ask Assay result, entry c1ccc(C[n+]2cccc3ccccc32)cc1 — outcome?
-- reply yes (1)

-- ask Assay result, entry Cc1ccc(C(C)C)cc1 — outcome?
-- reply no (0)

-- ask Assay result, entry Clc1ccccc1C(c1ccccc1)(c1ccccc1)n1ccnc1 — outcome?
-- reply yes (1)

-- ask Assay result, entry COc1cccc([C@H](O)C2CCN(CCc3ccc(F)cc3)CC2)c1OC — outcome?
-- reply yes (1)

-- ask Assay result, entry CCN(Cc1cccc(S(=O)(=O)O)c1)c1ccc(C(=C2C=CC(=[N+](CC)Cc3cccc(S(=O)(=O)O)c3)C=C2)c2ccccc2S(=O)(=O)[O-])cc1 — outcome?
-- reply no (0)

-- ask Assay result, entry CC(C)(C)c1cc(/C=C2\SC(N)=NC2=O)cc(C(C)(C)C)c1O — outcome?
-- reply yes (1)

-- ask Assay result, entry O=C=NCCCCCCN=C=O — outcome?
-- reply no (0)

-- ask Assay result, entry Cc1cc2c(cc1C(F)(F)F)N(C(=O)Nc1ccc(Oc3cccnc3C)nc1)CC2 — outcome?
-- reply no (0)

-- ask Assay result, entry CC(C)(C)c1csc(-c2cc3cc(OCc4ccccc4CC(=O)O)ccc3o2)n1 — outcome?
-- reply yes (1)
